assay: AUC (0 to 24 hrs) in CAnN.Cg-Foxnlnu/Cr1Crlj mouse at 10 mg/kg, po measured upto 24 hrs by LC-MS/MS analysis; type: ADME, organism-based; design: route oral, dose 10 mg/kg, time <=24; settings: in vivo
Measured attribute: AUC(0-t) (ng·h/mL)

* CC(C)n1cc(C(=O)Nc2ccc(Oc3cc(NC(=O)N4CCC(N5CCN(C)CC5)CC4)ncn3)cc2)c(=O)n(-c2ccc(F)cc2)c1=O | 7290

* * *

The entries below are paired with their reported solubility kinetic at 0.25 h.
experiment: Kinetic solubility of compound in PBS buffer at pH 7 incubated for 15 mins by HPLC-UV analysis
Measured attribute: solubility kinetic at 0.25 h (µM)

* CC(C)n1cc(C(=O)Nc2ccc(Oc3cc(NC(=O)N4CCC(N5CCN(C)CC5)CC4)ncn3)cc2)c(=O)n(-c2ccc(F)cc2)c1=O | 89
* CN1CCN(C2CCN(C(=O)Nc3cc(Oc4ccc(NC(=O)c5cn(C6CCCC6)c(=O)n(-c6ccc(F)cc6)c5=O)cc4)ncn3)CC2)CC1 | 80
* CC(C)n1cc(C(=O)Nc2ccc(Oc3cc(NC(=O)C4CC4)ncn3)cc2)c(=O)n(-c2ccc(F)cc2)c1=O | 6
* CC(C)n1cc(C(=O)Nc2ccc(Oc3cc(NC(=O)N4CC(N5CCCC5)C4)ncn3)cc2)c(=O)n(-c2ccc(F)cc2)c1=O | 80
* CN1CCC(CC(=O)Nc2cc(Oc3ccc(NC(=O)c4cn(C5CCCC5)c(=O)n(-c5ccc(F)cc5)c4=O)cc3F)ccn2)CC1 | 70
* CN1CCC(CC(=O)Nc2cc(Oc3cc(F)c(NC(=O)c4cc5c(n(-c6ccccc6)c4=O)CCCC5=O)cc3F)ccn2)CC1 | 50
* CN1CCN(C2CCN(C(=O)Nc3cc(Oc4ccc(NC(=O)c5cn(C6CC6)c(=O)n(-c6ccc(F)cc6)c5=O)cc4)ncn3)CC2)CC1 | 89
* CN1CCN(C2CCN(C(=O)Nc3cc(Oc4ccc(NC(=O)c5cn(C)c(=O)n(-c6ccc(F)cc6)c5=O)cc4)ncn3)CC2)CC1 | 90
* CC(C)n1cc(C(=O)Nc2ccc(Oc3ccnc(NC(=O)CC4CCN(C)CC4)c3)cc2F)c(=O)n(-c2ccc(F)cc2)c1=O | 78
